These entries and their values trace back to patent US20230096028A1.

- Test system: PC-9 cells (EGFR Ex19Del)
- experimentalProtocol: Potency Assay: pERK (SOS1 pERK IC50 Assay, AlphaLISA SureFire Ultra p-ERK1/2)
- Type: cell-based
- testSettings: Homo sapiens; PC-9 cells (EGFR Ex19Del), 1 hour incubation, AlphaLISA p-ERK1/2; read-out: SOS1 pERK IC50
measurementKind: IC50

Example entries and their recorded answers appear below.
C[C@@H](Nc1nc(Cl)nc2c1CN(C(=O)N1CCNCC(F)(F)C1)C2)c1cccc(C(F)F)c1F :: < 1 µM
C[C@@H](Nc1nc(Cl)nc2c1CN(C(=O)N1CC3COCC(C1)N3)C2)c1cccc(C(F)F)c1F :: < 1 µM
C[C@@H](Nc1nc(Cl)nc2c1CN(C(=O)C1(O)COC1)CC2)c1cc(N)cc(C(F)(F)F)c1 :: > 1 µM
C[C@@H](Nc1nc(Cl)nc2c1CN(S(=O)(=O)C1CCOC1)CC2)c1cc(N)cc(C(F)(F)F)c1 (some centres unmarked) :: < 1 µM

Now consider a different compound.
## Input Given COC1(C(=O)N2Cc3nc(Cl)nc(N[C@H](C)c4cccc(C(F)(F)CO)c4)c3C2)CCOCC1 , state its recorded IC50.
## Output < 1 µM
